B1: EHEE_rd2_1257 (parent)
chain: EEERTFTNEEEARKAKKEAEKRGLRVTVTKDGTTWRVRIG

# Variants of: B1
# experimental_details: folding stability dG (cDNA display proteolysis); higher = more stable
# condition_details: PBS, room temperature
Use yes when the recorded folding stability dG is no lower than 2 kcal/mol; use no when it is lower.

Consider the following illustrative entries.
> print(dat)
   variant.spec  label.value
1          R36M           no
2           N8T          yes
3          T33I           no

Asked: Form field: folding stability dG at least 2 kcal/mol? Entry: W35N
Given back: no

Asked: Hello, I need to know if V26A has measured folding stability dG not below 2 kcal/mol. Thanks!
Given back: yes

Asked: Entry A19Q : is its folding stability dG no less than 2 kcal/mol?
Given back: no

Asked: Kindly determine if folding stability dG recorded for E20C is above or exactly 2 kcal/mol.
Given back: no

Asked: Hi team, for A19N , is the recorded folding stability dG at or above 2 kcal/mol?
Given back: no

Attribution: the MegaScale stability set (Tsuboyama et al. 2023)
